Biological target: recombinant full-length human GSK3β (Homo sapiens)
Construct: recombinant full-length human GSK3β (Upstate); purchased Upstate
Sequence (P49841 whole entry): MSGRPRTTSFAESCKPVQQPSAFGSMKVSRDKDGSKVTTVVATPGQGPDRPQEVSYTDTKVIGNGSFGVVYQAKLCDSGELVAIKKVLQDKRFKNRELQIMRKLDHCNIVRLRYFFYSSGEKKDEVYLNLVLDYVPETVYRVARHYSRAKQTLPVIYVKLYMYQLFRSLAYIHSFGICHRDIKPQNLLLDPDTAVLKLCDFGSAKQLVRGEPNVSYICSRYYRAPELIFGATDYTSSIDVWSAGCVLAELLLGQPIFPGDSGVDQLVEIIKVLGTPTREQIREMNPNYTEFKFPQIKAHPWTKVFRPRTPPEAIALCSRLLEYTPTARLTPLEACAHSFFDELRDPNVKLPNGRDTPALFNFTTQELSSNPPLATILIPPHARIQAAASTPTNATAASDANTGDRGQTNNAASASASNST
Experiment: Luciferase-coupled cell-free GSK3β kinase assay
Type: biochemical
Settings: Table 2
Experimental: For compounds in Tables 1 and 2, IC50 (μM) for GSK3β enzyme in cell free assay is provided as follows: Luciferase-Coupled Protein Kinase Assays All coupled-luciferase assays are performed by using a brief incubation with firefly luciferase (Promega) after completion of the kinase assay. KinaseGlo Plus is used for reading kinase reactions with ATP>10 μM, KinaseGlo for ATP <10 μM. The assay volume in a 384-well plate for the kinase reaction is 30 microliters. […]
Catalogue of molecules with associated IC50
readout-kind: IC50

[
  {
    "molecule": "CC1COc2c(NCCNc3nc(F)c(F)cc3F)c(F)c(N)c3c(=O)c(C(=O)O)cn1c23 (stereo not shown)",
    "readout-kind": "IC50",
    "reported-value": "< 0.1 µM"
  },
  {
    "molecule": "C[C@H]1COc2c(NCCCn3cnc4ccccc43)c(F)c(N)c3c(=O)c(C(=O)O)cn1c23",
    "readout-kind": "IC50",
    "reported-value": "< 0.1 µM"
  },
  {
    "molecule": "COc1c(OCCNc2ccccn2)c(F)c(N)c2c(=O)c(C(=O)O)cn(C3CC3)c12",
    "readout-kind": "IC50",
    "reported-value": "> 1 µM"
  },
  {
    "molecule": "CC1(C)COc2c(NCCCOc3ccccc3)c(F)c(N)c3c(=O)c(C(=O)O)cn(c23)C1",
    "readout-kind": "IC50",
    "reported-value": "0.1 to 0.5 µM"
  }
]

###

experiment: Animal Study 2 (oral glucose tolerance test); design: species or system Crlj:CD1 (ICR) mice; conditions: Mus musculus; Table 2; 300 mg/kg oral, ICR mice; plasma glucose 0.5 and 1 hr after glucose load vs vehicle; read-out: In vivo studies 300 mg/kg (oral glucose tolerance test, % decrease)

[
  {
    "compound": "CC1(C)Cn2cc(C(=O)O)c(=O)c3c(N)c(F)c(NCCNc4ccccn4)c(c32)O1 [compound 57]",
    "inhibition in vivo at 300 mg/kg": "> 20%"
  },
  {
    "compound": "C[C@H]1COc2c(NCCCN3CCCc4ccccc43)c(F)c(N)c3c(=O)c(C(=O)O)cn1c23 [compound 67]",
    "inhibition in vivo at 300 mg/kg": "10 to 20%"
  },
  {
    "compound": "C[C@H]1COc2c(NCCCn3ccnc3)c(F)c(N)c3c(=O)c(C#N)cn1c23 [Example 114]",
    "inhibition in vivo at 300 mg/kg": "> 20%"
  },
  {
    "compound": "CCN(CCCNc1c(F)c(N)c2c(=O)c(C(=O)O)cn3c2c1OC[C@@H]3C)c1ccccc1 [compound 76]",
    "inhibition in vivo at 300 mg/kg": "> 20%"
  }
]

###

Catalogue of compounds with associated MIC
tested on: E. coli, ATCC8739; test: Antibacterial activity (MIC), E. coli; type: cell-based; conditions: Escherichia coli, ATCC8739, Table 1; E. coli ATCC8739; read-out: Antibacterial MIC (μM) E.Coli
readout-kind: MIC

[
  {
    "compound": "CC(C)OCCCNc1c(F)c(N)c2c(=O)c(C(=O)O)cn(CCc3ccccc3)c2c1F",
    "reported-value": "0.5 to 10 µM"
  },
  {
    "compound": "Nc1c(F)c(NCCNc2ccccn2)c(F)c2c1c(=O)ccn2C1CCCC1",
    "reported-value": "> 50 µM"
  },
  {
    "compound": "Nc1c(F)c(NCCNc2cccc3ccccc23)c(F)c2c1c(=O)c(C(=O)O)cn2C1CC1",
    "reported-value": "0.5 to 10 µM"
  },
  {
    "compound": "Nc1c(F)c(NCCNc2ccccn2)c(F)c2c1c(=O)c(C(=O)O)cn2C1CC1",
    "reported-value": "0.5 to 10 µM"
  },
  {
    "compound": "Nc1c(F)c(NCCc2c[nH]c3ccccc23)c(F)c2c1c(=O)ccn2C1CC1",
    "reported-value": "> 50 µM"
  },
  {
    "compound": "COc1c(NCCCn2ccnc2)c(F)c(N)c2c(=O)c(C(=O)O)cn(C3CC3)c12",
    "reported-value": "10 to 50 µM"
  },
  {
    "compound": "CC1COc2c(NCCNc3ccccn3)c(F)c(N)c3c(=O)c(C(=O)O)cn1c23 (centres unmarked)",
    "reported-value": "0.5 to 10 µM"
  },
  {
    "compound": "CC1COc2c(NCCCc3ccccc3)c(F)c(N)c3c(=O)c(C(=O)O)cn1c23 (centres unmarked)",
    "reported-value": "10 to 50 µM"
  },
  {
    "compound": "CC(C)OCCCNc1c(F)c(N)c2c(=O)ccn(C3CCCC3)c2c1F",
    "reported-value": "> 50 µM"
  },
  {
    "compound": "Nc1c(F)c(NCCCn2ccnc2)c(F)c2c1c(=O)c(C(=O)O)cn2C1CC1",
    "reported-value": "0.5 to 10 µM"
  },
  {
    "compound": "Nc1c(F)c(NCCCCc2ccccc2)c(F)c2c1c(=O)ccn2C1CC1",
    "reported-value": "10 to 50 µM"
  },
  {
    "compound": "COc1c(NCCCc2ccccc2)c(F)c(N)c2c(=O)c(C(=O)O)cn(C3CC3)c12",
    "reported-value": "10 to 50 µM"
  },
  {
    "compound": "Nc1c(F)c(NCCCCc2ccccc2)c(F)c2c1c(=O)c(C(=O)O)cn2C1CC1",
    "reported-value": "10 to 50 µM"
  },
  {
    "compound": "Nc1c(F)c(NCCNc2cccc3ccccc23)c(F)c2c1c(=O)c(C(=O)O)cn2CCc1ccccc1",
    "reported-value": "10 to 50 µM"
  },
  {
    "compound": "CC(C)(C)OC(=O)NCCNc1c(F)c(N)c2c(=O)ccn(C3CC3)c2c1F",
    "reported-value": "> 50 µM"
  },
  {
    "compound": "COc1c(NCCCOc2ccccc2)c(F)c(N)c2c(=O)c(C(=O)O)cn(C3CC3)c12",
    "reported-value": "10 to 50 µM"
  },
  {
    "compound": "Nc1c(F)c(NCCc2ccc(F)cc2)c(F)c2c1c(=O)c(C(=O)O)cn2C1CC1",
    "reported-value": "0.5 to 10 µM"
  }
]

###

Catalogue of compounds with associated MIC
system: S. aureus Smith; assay: Antibacterial activity (MIC), S. aureus; format: cell-based; conditions: Staphylococcus aureus, Table 1; read-out: Antibacterial MIC (μM) S. aureus Smith
readout-kind: MIC

[
  {
    "record-smiles": "Nc1c(F)c(NCCc2ccncc2)c(F)c2c1c(=O)ccn2C1CCCC1",
    "readout-kind": "MIC",
    "reported-value": "> 50 µM"
  },
  {
    "record-smiles": "CC(C)OCCCNc1c(F)c(N)c2c(=O)ccn(C3CCCC3)c2c1F",
    "readout-kind": "MIC",
    "reported-value": "> 50 µM"
  },
  {
    "record-smiles": "Nc1c(F)c(NCCCn2ccnc2)c(F)c2c1c(=O)ccn2C1CC1",
    "readout-kind": "MIC",
    "reported-value": "> 50 µM"
  },
  {
    "record-smiles": "Nc1c(F)c(NCCCc2ccccc2)c(F)c2c1c(=O)c(C(=O)O)cn2CCc1ccccc1",
    "readout-kind": "MIC",
    "reported-value": "10 to 50 µM"
  },
  {
    "record-smiles": "COc1c(NCCNc2ccccn2)c(F)c(N)c2c(=O)c(C(=O)O)cn(C3CCCC3)c12",
    "readout-kind": "MIC",
    "reported-value": "0.5 to 10 µM"
  },
  {
    "record-smiles": "CC(C)OCCCNc1c(F)c(N)c2c(=O)c(C(=O)O)cn(CCc3ccccc3)c2c1F",
    "readout-kind": "MIC",
    "reported-value": "0.5 to 10 µM"
  },
  {
    "record-smiles": "COc1c(NCCCc2ccccc2)c(F)c(N)c2c(=O)c(C(=O)O)cn(C3CC3)c12",
    "readout-kind": "MIC",
    "reported-value": "0.5 to 10 µM"
  },
  {
    "record-smiles": "Nc1c(F)c(NCCc2c[nH]c3ccccc23)c(F)c2c1c(=O)ccn2C1CC1",
    "readout-kind": "MIC",
    "reported-value": "> 50 µM"
  },
  {
    "record-smiles": "COc1c(NCCNc2cccc3ccccc23)c(F)c(N)c2c(=O)c(C(=O)O)cn(C3CC3)c12",
    "readout-kind": "MIC",
    "reported-value": "0.5 to 10 µM"
  },
  {
    "record-smiles": "Nc1c(F)c(NCCc2ccncc2)c(F)c2c1c(=O)ccn2CCc1ccccc1",
    "readout-kind": "MIC",
    "reported-value": "> 50 µM"
  },
  {
    "record-smiles": "Nc1c(F)c(NCCCCc2ccccc2)c(F)c2c1c(=O)ccn2C1CC1",
    "readout-kind": "MIC",
    "reported-value": "10 to 50 µM"
  },
  {
    "record-smiles": "Nc1c(F)c(NCCc2ccc(O)cc2)c(F)c2c1c(=O)c(C(=O)O)cn2C1CC1",
    "readout-kind": "MIC",
    "reported-value": "< 0.5 µM"
  },
  {
    "record-smiles": "Nc1c(F)c(NCCCn2ccnc2)c(F)c2c1c(=O)ccn2CCc1ccccc1",
    "readout-kind": "MIC",
    "reported-value": "> 50 µM"
  },
  {
    "record-smiles": "Nc1c(F)c(NCCNc2ccccn2)c(F)c2c1c(=O)c(C(=O)O)cn2C1CC1",
    "readout-kind": "MIC",
    "reported-value": "0.5 to 10 µM"
  },
  {
    "record-smiles": "Nc1c(F)c(NCCCc2ccccc2)c(F)c2c1c(=O)c(C(=O)O)cn2CCCn1ccnc1",
    "readout-kind": "MIC",
    "reported-value": "10 to 50 µM"
  },
  {
    "record-smiles": "COc1c(NCCCn2ccnc2)c(F)c(N)c2c(=O)c(C(=O)O)cn(C3CCCC3)c12",
    "readout-kind": "MIC",
    "reported-value": "> 50 µM"
  },
  {
    "record-smiles": "COc1c(NCCNc2ccccc2)c(F)c(N)c2c(=O)c(C(=O)O)cn(C3CC3)c12",
    "readout-kind": "MIC",
    "reported-value": "0.5 to 10 µM"
  }
]
